# target: Aldehyde dehydrogenase 1A1 (Homo sapiens)
# Sequence (P00352 whole entry): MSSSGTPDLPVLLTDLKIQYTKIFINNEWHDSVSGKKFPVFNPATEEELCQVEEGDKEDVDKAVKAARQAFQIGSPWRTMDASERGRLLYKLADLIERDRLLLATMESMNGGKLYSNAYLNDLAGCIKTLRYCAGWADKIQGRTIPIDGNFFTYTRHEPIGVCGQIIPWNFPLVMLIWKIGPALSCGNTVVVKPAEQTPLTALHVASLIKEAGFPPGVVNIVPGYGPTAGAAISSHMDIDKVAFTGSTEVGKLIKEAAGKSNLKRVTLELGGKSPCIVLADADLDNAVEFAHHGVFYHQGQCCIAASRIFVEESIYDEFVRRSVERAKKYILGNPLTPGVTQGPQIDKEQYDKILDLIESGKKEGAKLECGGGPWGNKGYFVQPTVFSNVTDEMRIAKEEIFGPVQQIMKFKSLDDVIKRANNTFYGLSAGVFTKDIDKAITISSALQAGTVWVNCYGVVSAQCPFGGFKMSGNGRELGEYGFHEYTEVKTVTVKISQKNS
I'd be grateful if you could share measured IC50 for these entries.
Numbers only, in nM.

Use the examples below as a reference point.
smiles | target | IC50 [nM]
Cc1oc2cc3oc(=O)c(CCC(=O)N4CCCCC4)c(C)c3cc2c1C | Aldehyde dehydrogenase 1A1 (Homo sapiens) | 130
CCCc1c(C)c2cc3c(C)c(C)oc3cc2oc1=O | Aldehyde dehydrogenase 1A1 (Homo sapiens) | 220
Cc1c(Cc2ccccc2)c(=O)oc2cc(OS(C)(=O)=O)ccc12 | Aldehyde dehydrogenase 1A1 (Homo sapiens) | 2800
CCCc1c(C)c2cc3c(C)coc3cc2oc1=O | Aldehyde dehydrogenase 1A1 (Homo sapiens) | 340
Cc1oc2cc3oc(=O)c4c(c3cc2c1C)CCCC4 | Aldehyde dehydrogenase 1A1 (Homo sapiens) | 130
Cc1oc2cc3oc(=O)c4c(c3cc2c1C)CCC4 | Aldehyde dehydrogenase 1A1 (Homo sapiens) | 170

For the next question, use this compound.
Lookup: Report its IC50 with Aldehyde dehydrogenase 1A1 (Homo sapiens) as the test system: `CCN(CC)c1ccc2c(C)cc(=O)oc2c1`
Found: 760

====

# target: Aldehyde dehydrogenase, mitochondrial (Homo sapiens)
# measurement.notes: Inhibition of full length recombinant human ALDH2 expressed in Escherichia coli assessed as remaining dehydrogenase activity by measuring NAD(P)H level at 10 uM preincubated for 2 mins followed by addition of propionaldehyde as substrate in presence of NAD+ by spectrophotometric method
metric: Activity (%)
One number for each entry, in %.

Known Activity results, listed for orientation:
molecule | metric | value.units | recorded.number
CC(=O)C(C)Oc1ccc2c(C)cc(=O)oc2c1 (stereo unspecified) | Activity | % | 94.4
CCCc1cc(=O)oc2cc3oc(C)c(C)c3cc12 | Activity | % | 23.8
Cc1coc2cc3oc(=O)c(Cc4ccccc4)c(C)c3cc12 | Activity | % | 83.6
Cc1c(C)c2c(cc(C)c3c(C)coc32)oc1=O | Activity | % | 46.4
Cc1c(C)c2cc3c(C(C)(C)C)coc3cc2oc1=O | Activity | % | 69.7
Cc1cc2oc(=O)cc(C)c2cc1NC(=O)C(C)C | Activity | % | 96.3
Cc1c(C)c2cc3c(-c4ccccc4)coc3cc2oc1=O | Activity | % | 92.8
Cc1oc2cc3oc(=O)c4ccccc4c3cc2c1C | Activity | % | 42.2

# batch: return Activity for each of the 8 molecules below
1. COc1ccc2c(C)cc(=O)oc2c1
2. CC(=O)C(C)Oc1ccc2c(c1)oc(=O)c1ccccc12 (stereo unspecified)
3. Cc1cc(=O)oc2cc(OCC(=O)Nc3ccccc3)ccc12
4. COC(=O)C(C)Oc1ccc2c(C)cc(=O)oc2c1 (stereo unspecified)
5. Cc1c(C)c2cc3c4c(oc3cc2oc1=O)CCCC4
6. CCCc1c(C)c2cc3c(C)coc3cc2oc1=O
7. Cc1cc(=O)oc2cc3c(cc12)CCC(=O)O3
8. C=CCOc1ccc2c(C)cc(=O)oc2c1

Found:
1: 94.8; 2: 64.4; 3: 95; 4: 5.72; 5: 61.3; 6: 6.25; 7: 25.5; 8: 94.6

Please give Activity for each item listed below.
1. Cc1cc(=O)oc2cc(OCC(N)=O)ccc12
2. Cc1oc2cc3oc(=O)c4c(c3cc2c1C)CCC4
3. CCCc1c(C)c2cc3c(C)c(C)oc3cc2oc1=O
4. Cc1cc(=O)oc2cc(OCC#N)ccc12

Found:
89.5
8.25
1.61
41.3

# batch: return Activity for each of the 6 molecules below
1. Cc1cc(=O)oc2cc(OC(C)C(=O)O)ccc12 (stereo unspecified)
2. Cc1oc2c(C)c3oc(=O)c(C)c(C)c3cc2c1C
3. CC(=O)C(C)Oc1ccc2ccc(=O)oc2c1 (stereo unspecified)
4. Cc1oc2cc3oc(=O)cc(Cc4ccccc4)c3cc2c1C
5. Cc1c(CCC(=O)O)c(=O)oc2cc(O)ccc12
6. Cc1cc(=O)oc2cc(OCC(=O)c3ccccc3)ccc12

Found:
1. 99.3
2. 87.2
3. 93.3
4. 73.7
5. 101
6. 97.8

Please look at the items below and tell me Activity for each one, in order.
1. Cc1c(Cc2ccccc2)c(=O)oc2cc(OS(C)(=O)=O)ccc12
2. Cc1oc2cc3oc(=O)c(C)c(C)c3cc2c1C
3. Cc1oc2cc3oc(=O)c(CCC(=O)N4CCCCC4)c(C)c3cc2c1C
4. CCN(CC)c1ccc2c(C)cc(=O)oc2c1
5. Cc1c(C)c2cc3c(=O)ccoc3c(C)c2oc1=O

Found:
1. 99.7
2. 19.5
3. 3.8
4. 71.7
5. 80.2
